Test system: Huh-7 cells containing HCV Con1 subgenomic replicon (GS4.1 cells)
Assay: HCV replicon assay (NS5A ELISA)
Type: cell-based
Conditions: Hepatitis C virus, Huh-7; GS4.1 cells, 72 hrs, NS5A ELISA; read-out: EC50
pEC50: −log10 of the molar value.
Measurement label: pEC50

{"Molecule": "COC(=O)N[C@H](C(=O)N1CCC[C@H]1c1ncc(-c2ccc(-c3cc4sc(-c5cnc([C@@H]6CCCN6C(=O)[C@@H](NC(=O)OC)C(C)C)[nH]5)cc4s3)cc2)[nH]1)C(C)C", "System tested": "Huh-7 cells containing HCV Con1 subgenomic replicon (GS4.1 cells)", "Measurement label": "pEC50", "Result": "> 9.00"}
{"Molecule": "CC(C)(C)OC(=O)N1CCCC1c1nc(-c2ccc(-c3cn4cc(-c5ccc(-c6cnc([C@@H]7CCCN7C(=O)OC(C)(C)C)[nH]6)cc5)sc4n3)cc2)c[nH]1 (some centres unmarked)", "System tested": "Huh-7 cells containing HCV Con1 subgenomic replicon (GS4.1 cells)", "Measurement label": "pEC50", "Result": "7.00 to 8.00"}
{"Molecule": "COC(=O)N[C@H](C(=O)N1CCC[C@H]1c1ncc(-c2ccc(-c3cn4cc(NC(=O)C5CCCN5C(=O)CNC(=O)OC(C)(C)C)nc4s3)cc2)[nH]1)C(C)C (some centres unmarked)", "System tested": "Huh-7 cells containing HCV Con1 subgenomic replicon (GS4.1 cells)", "Measurement label": "pEC50", "Result": "7.00 to 8.00"}
{"Molecule": "COC(=O)N[C@H](C(=O)N1CCC[C@H]1c1ncc(-c2ccc(-c3cn4cc(NC(=O)[C@@H]5CCCN5C(=O)[C@H](NC(=O)OC)c5ccccc5)nc4s3)cc2)[nH]1)C(C)C", "System tested": "Huh-7 cells containing HCV Con1 subgenomic replicon (GS4.1 cells)", "Measurement label": "pEC50", "Result": "> 9.00"}
{"Molecule": "CC(C)(C)OC(=O)N1CCCC1c1ncc(-c2ccc(-c3nc4sccn4c3Cl)cc2)[nH]1 (centres unmarked)", "System tested": "Huh-7 cells containing HCV Con1 subgenomic replicon (GS4.1 cells)", "Measurement label": "pEC50", "Result": "< 7.00"}
